Exercise: state measured mass density for each of the compounds provided.
# MEASUREMENT_SETUP: 293.15 K; 101.33 kPa; Liquid; Vibrating tube method
One number for each entry, in kg/m3.

Sample records with mass density:
>  <COMPOUND>
C1CCCC1

>  <MEASUREMENT_TYPE>
mass density

>  <ASSAY_VALUE>
745.7

$$$$
>  <COMPOUND>
CCCCCCC(C)=O

>  <MEASUREMENT_TYPE>
mass density

>  <ASSAY_VALUE>
819.9

$$$$

Please state, for each entry, its recorded mass density.
1. OC1CCCC1
2. CCC(=O)O
3. CCCCOC(=O)/C=C\C(=O)OCCCC [dibutyl cis-butendioate]

1. 948.7
2. 988
3. 990.1

* * *

# ASSAY_SUMMARY: refractive index (Na D-line) (dimensionless)
# MEASUREMENT_SETUP: 293.15 K; 101.33 kPa; Liquid; Standard Abbe refractometry
MEASUREMENT_TYPE: refractive index
One number for each entry.

Sample records with refractive index:
>  <COMPOUND>
CCC(=O)O

>  <refractive index>
1.3809

$$$$
>  <COMPOUND>
OC1CCCC1

>  <refractive index>
1.4531

$$$$
>  <COMPOUND>
C1CCCC1

>  <refractive index>
1.4066

$$$$

Please state, for each entry, its recorded refractive index.
1. CCCCCCC(C)=O
2. CCCCOC(=O)/C=C\C(=O)OCCCC [dibutyl cis-butendioate]

[1.4151, 1.4452]

Data origin: the NIST ThermoML archive (doi:10.1021/acs.jced.6b00985)
